# System: HIV mutant strain 2 (E92Q/E138T/G140S/Q148H)
# experimentalProtocol: Test Example 2: resistance evaluation test (HeLa-CD4 reporter), mutant strain 2
# Type: cell-based
# runConditions: FC=EC50 of mutant strain/EC50 of wild strain; HeLa-CD4 cells
assayReadout: FC in respect of mutant strain 2 (E92Q/E138T/G140S/Q148H)
Hey, just send me the number, nothing else.

Here are 5 molecules together with their reported answers.
{"molecule": "CN1C(=O)c2c(O)c(=O)c(-c3nnc(Cc4c(F)cc(F)cc4F)s3)cn2N2C[C@@H]3CC[C@@H](C3)[C@@H]12", "observedMeasurement": 12}
{"molecule": "CCN1C(=O)c2c(O)c(=O)c(C(=O)NCc3c(F)cc(F)cc3F)cn2N2C[C@@H](C)C[C@@H]12", "observedMeasurement": 17}
{"molecule": "CCN1C(=O)c2c(O)c(=O)c(C(=O)NCc3c(F)cc(F)cc3F)cn2N2CCCC[C@@H]12", "observedMeasurement": 10}
{"molecule": "COC[C@@H]1CC[C@H]2N(C(C)C)C(=O)c3c(O)c(=O)c(C(=O)NCc4ccccc4F)cn3N12", "observedMeasurement": 7.7}
{"molecule": "CC(C)N1C(=O)c2c(O)c(=O)c(C(=O)NCc3ccc(F)cc3F)cn2N2CCOC[C@@H]12", "observedMeasurement": 14}

Here is the next item to consider.
# molecule "CN1C(=O)c2c(O)c(=O)c(C(=O)NCc3cccc(Cl)c3F)cn2N2CCCC[C@@H]12" ; its FC in respect of mutant strain 2 (E92Q/E138T/G140S/Q148H) = 7.7

====

Each item that follows carries a reported Remaining percentage.
# experimentalProtocol: Test Example 8: metabolic stability test
# Assay type: in vitro ADME, human
# runConditions: pooled human liver microsomes, 30 min at 37° C., NADPH, compound concentration 0.5 μmol/L
All answers are understood in %, so give the number only.

Here are 6 compounds together with their reported answers.
{"molecularString": "CCN1C(=O)c2c(O)c(=O)c(C(=O)NCc3c(F)cc(F)cc3F)cn2N2C[C@@H]3CC[C@@H](C3)[C@@H]12", "observedMeasurement": 74.3}
{"molecularString": "CC(C)N1C(=O)c2c(O)c(=O)c(C(=O)NCc3ccc(F)cc3F)cn2N2CCOC[C@@H]12", "observedMeasurement": 87.5}
{"molecularString": "CCN1C(=O)c2c(O)c(=O)c(-c3nnc(Cc4c(F)cc(F)cc4F)s3)cn2N2C[C@@H]3CC[C@@H](C3)[C@@H]12", "observedMeasurement": 83.4}
{"molecularString": "CCN1C(=O)c2c(O)c(=O)c(C(=O)NCc3c(F)cc(F)cc3F)cn2N2C[C@@H](C)CC[C@@H]12", "observedMeasurement": 90.7}
{"molecularString": "CCN1C(=O)c2c(O)c(=O)c(C(=O)NCc3ccc(F)cc3F)cn2N2C[C@H](COC)C[C@@H]12", "observedMeasurement": 84.3}
{"molecularString": "CCN1C(=O)c2c(O)c(=O)c(-c3nnc(Cc4c(F)cc(F)cc4F)s3)cn2N2CCCC[C@@H]12", "observedMeasurement": 97.7}

Here is the next item to consider.
# compound "CN1C(=O)c2c(O)c(=O)c(C(=O)NCc3cccc(Cl)c3F)cn2N2CCOC[C@@H]12" ; its Remaining percentage = 97.2

====

# Tested on: HIV
# experimentalProtocol: Test Example 3: test for confirmation of combined use effect
# Assay type: cell-based
# Set-up: key: <-0.1 synergy, -0.1 to 0.1 additive, >0.1 antagonism
# runConditions: combination with compound (B) GSK2838232 (maturation inhibitor)
Classify by measured D value (dosewise additivity value): class 1 if it is equal to or exceeds 0, class 0 if it is smaller.

{"compound": "CCN1C(=O)c2c(O)c(=O)c(-c3nnc(Cc4ccc(F)cc4F)s3)cn2N2C[C@@H](C)C[C@@H]12", "classAssignment": "class 0"}

Is it the case that CCN1C(=O)c2c(O)c(=O)c(C(=O)NCc3cccc(Cl)c3F)cn2N2[C@H]3COCC3C[C@@H]12 (some centres unmarked) has D value (dosewise additivity value) reaching or exceeding 0?
class 0

Is it the case that "CCN1C(=O)c2c(O)c(=O)c(C(=O)NCc3c(F)cc(F)cc3F)cn2N2C[C@@H](C)CC[C@@H]12" has D value (dosewise additivity value) reaching or exceeding 0?
class 1

Is it the case that "C[C@H]1C[C@H]2N(C)C(=O)c3c(O)c(=O)c(C(=O)NCc4cccc(Cl)c4F)cn3N2C1" has D value (dosewise additivity value) reaching or exceeding 0?
class 1

Is it the case that "COC[C@@H]1CC[C@H]2N(C)C(=O)c3c(O)c(=O)c(C(=O)NCc4cccc(Cl)c4F)cn3N12" has D value (dosewise additivity value) reaching or exceeding 0?
class 0

Is it the case that "CCN1C(=O)c2c(O)c(=O)c(-c3nnc(Cc4ccc(F)cc4F)s3)cn2N2[C@H](COC)CC[C@@H]12" has D value (dosewise additivity value) reaching or exceeding 0?
class 0

Is it the case that "CCN1C(=O)c2c(O)c(=O)c(-c3nnc(Cc4c(F)cc(F)cc4F)s3)cn2N2CCCC[C@@H]12" has D value (dosewise additivity value) reaching or exceeding 0?
class 1

====

# experimentalProtocol: Test Example 8: metabolic stability test
# Format: in vitro ADME, human
# runConditions: pooled human liver microsomes, 30 min at 37° C., NADPH, compound concentration 0.5 μmol/L
assayReadout: Remaining percentage (%)
All answers are understood in %, so give the number only.

{"molecularString": "CCN1C(=O)c2c(O)c(=O)c(C(=O)NCc3c(F)cc(F)cc3F)cn2N2[C@H](COC)CC[C@@H]12", "observedMeasurement": 96.1}
{"molecularString": "CC(C)N1C(=O)c2c(O)c(=O)c(C(=O)NCc3ccccc3F)cn2N2C[C@@H]3CC[C@@H](O3)[C@@H]12", "observedMeasurement": 87}
{"molecularString": "CCN1C(=O)c2c(O)c(=O)c(C(=O)NCc3ccc(F)cc3F)cn2N2C[C@@H](C)C[C@@H]12", "observedMeasurement": 96}
{"molecularString": "CN1C(=O)c2c(O)c(=O)c(C(=O)NCc3cccc(Cl)c3F)cn2N2CCCC[C@@]12C", "observedMeasurement": 88.6}
{"molecularString": "CCN1C(=O)c2c(O)c(=O)c(C(=O)NCc3ccc(F)cc3F)cn2N2CCCC[C@@]12C", "observedMeasurement": 92.5}

# molecule "CN1C(=O)c2c(O)c(=O)c(C(=O)NCc3cccc(Cl)c3F)cn2N2C[C@@H]3CC[C@@H](O3)[C@@H]12" ; its Remaining percentage = 97.7

# molecule "C[C@H]1C[C@H]2N(C)C(=O)c3c(O)c(=O)c(C(=O)NCc4cccc(Cl)c4F)cn3N2C1" ; its Remaining percentage = 97.4

# molecule "CCN1C(=O)c2c(O)c(=O)c(-c3nnc(Cc4ccc(F)cc4)s3)cn2N2[C@H](COC)CC[C@@H]12" ; its Remaining percentage = 92.4

# molecule "CCN1C(=O)c2c(O)c(=O)c(-c3nnc(Cc4ccc(F)cc4F)s3)cn2N2C[C@@H]3CC[C@@H](C3)[C@@H]12" ; its Remaining percentage = 92.9

# molecule "CN1C(=O)c2c(O)c(=O)c(C(=O)NCc3c(F)cc(F)cc3F)cn2N2CCCC[C@@H]12" ; its Remaining percentage = 105

# molecule "COC[C@@H]1CC[C@H]2N(C)C(=O)c3c(O)c(=O)c(C(=O)NCc4c(F)cc(F)cc4F)cn3N12" ; its Remaining percentage = 90

# molecule "CCN1C(=O)c2c(O)c(=O)c(C(=O)NCc3ccc(F)nc3F)cn2N2C[C@@H]3CC[C@@H](O3)[C@@H]12" ; its Remaining percentage = 105

# molecule "CCN1C(=O)c2c(O)c(=O)c(-c3nnc(Cc4ccc(F)cc4F)s3)cn2N2C[C@@H](C)C[C@@H]12" ; its Remaining percentage = 98.3

# molecule "CCN1C(=O)c2c(O)c(=O)c(-c3nnc(Cc4ccc(F)cc4F)s3)cn2N2C[C@@H]3CC[C@@H](O3)[C@@H]12" ; its Remaining percentage = 100

# molecule "CN1C(=O)c2c(O)c(=O)c(-c3nnc(Cc4ccc(F)cc4F)s3)cn2N2CCOC[C@@H]12" ; its Remaining percentage = 106

====

# Test system: HIV mutant strain 2 (E92Q/E138T/G140S/Q148H)
# experimentalProtocol: Test Example 2: resistance evaluation test (HeLa-CD4 reporter), mutant strain 2
# Assay type: cell-based
# runConditions: FC=EC50 of mutant strain/EC50 of wild strain; HeLa-CD4 cells
Please use the following FC in respect of mutant strain 2 (E92Q/E138T/G140S/Q148H) ranges when assigning a class: low: < 10; mid: ≥ 10 and < 20; high: ≥ 20

{"molecularString": "CN1C(=O)c2c(O)c(=O)c(C(=O)NCc3cccc(Cl)c3F)cn2N2C[C@@H]3CC[C@@H](O3)[C@@H]12", "classAssignment": "mid"}
{"molecularString": "CCN1C(=O)c2c(O)c(=O)c(-c3nnc(Cc4ccc(F)cc4F)s3)cn2N2[C@H](COC)CC[C@@H]12", "classAssignment": "mid"}
{"molecularString": "CCN1C(=O)c2c(O)c(=O)c(C(=O)NCc3ccc(F)cc3F)cn2N2CC[C@@H](C)C[C@@H]12", "classAssignment": "low"}
{"molecularString": "CCN1C(=O)c2c(O)c(=O)c(C(=O)NCc3ccc(F)cc3F)cn2N2CC[C@H](C)C[C@@H]12", "classAssignment": "high"}

Which FC in respect of mutant strain 2 (E92Q/E138T/G140S/Q148H) category applies to "CC(C)N1C(=O)c2c(O)c(=O)c(C(=O)NCc3ccccc3F)cn2N2C[C@@H]3CC[C@@H](O3)[C@@H]12" here?
low

Which FC in respect of mutant strain 2 (E92Q/E138T/G140S/Q148H) category applies to "C[C@@H]1CCC[C@H]2N(C)C(=O)c3c(O)c(=O)c(-c4nnc(Cc5ccc(F)cc5F)s4)cn3N12" here?
mid

Which FC in respect of mutant strain 2 (E92Q/E138T/G140S/Q148H) category applies to "CCN1C(=O)c2c(O)c(=O)c(-c3nnc(Cc4c(F)cc(F)cc4F)s3)cn2N2[C@H](COC)CC[C@@H]12" here?
mid

Which FC in respect of mutant strain 2 (E92Q/E138T/G140S/Q148H) category applies to "CN1C(=O)c2c(O)c(=O)c(-c3nnc(Cc4cccc(Cl)c4F)s3)cn2N2CCOC[C@@H]12" here?
high

Which FC in respect of mutant strain 2 (E92Q/E138T/G140S/Q148H) category applies to "COC[C@@H]1CC[C@H]2N(C)C(=O)c3c(O)c(=O)c(C(=O)NCc4c(F)cc(F)cc4F)cn3N12" here?
high

Which FC in respect of mutant strain 2 (E92Q/E138T/G140S/Q148H) category applies to "CCN1C(=O)c2c(O)c(=O)c(C(=O)NCc3ccc(F)cc3F)cn2N2C[C@@H](COC)C[C@@H]12" here?
high

Which FC in respect of mutant strain 2 (E92Q/E138T/G140S/Q148H) category applies to "C[C@@H]1CCN2[C@@H](C1)N(C)C(=O)c1c(O)c(=O)c(-c3nnc(Cc4c(F)cc(F)cc4F)s3)cn12" here?
low

Which FC in respect of mutant strain 2 (E92Q/E138T/G140S/Q148H) category applies to "CCN1C(=O)c2c(O)c(=O)c(-c3nnc(Cc4c(F)cc(F)cc4F)s3)cn2N2C[C@@H]3CC[C@@H](C3)[C@@H]12" here?
low

Which FC in respect of mutant strain 2 (E92Q/E138T/G140S/Q148H) category applies to "CCN1C(=O)c2c(O)c(=O)c(-c3nnc(Cc4ccc(F)cc4F)s3)cn2N2C[C@@H]3CC[C@@H](O3)[C@@H]12" here?
mid

Which FC in respect of mutant strain 2 (E92Q/E138T/G140S/Q148H) category applies to "CCN1C(=O)c2c(O)c(=O)c(C(=O)NCc3ccc(F)cc3F)cn2N2CCCC[C@@]12C" here?
mid

Which FC in respect of mutant strain 2 (E92Q/E138T/G140S/Q148H) category applies to "CCN1C(=O)c2c(O)c(=O)c(-c3nnc(Cc4ccc(F)cc4)s3)cn2N2C[C@@H]3CC[C@@H](O3)[C@@H]12" here?
high

Which FC in respect of mutant strain 2 (E92Q/E138T/G140S/Q148H) category applies to "CN1C(=O)c2c(O)c(=O)c(C(=O)NCc3cccc(Cl)c3F)cn2N2CCCC[C@@]12C" here?
high

Which FC in respect of mutant strain 2 (E92Q/E138T/G140S/Q148H) category applies to "CCN1C(=O)c2c(O)c(=O)c(-c3nnc(Cc4c(F)cc(F)cc4F)s3)cn2N2CC[C@H](C)C[C@@H]12" here?
low

Which FC in respect of mutant strain 2 (E92Q/E138T/G140S/Q148H) category applies to "CC(C)N1C(=O)c2c(O)c(=O)c(C(=O)NCc3ccc(F)cc3F)cn2N2C[C@@H]3CC[C@@H](O3)[C@@H]12" here?
low

Which FC in respect of mutant strain 2 (E92Q/E138T/G140S/Q148H) category applies to "COC[C@@H]1CC[C@H]2N(C)C(=O)c3c(O)c(=O)c(-c4nnc(Cc5c(F)cc(F)cc5F)s4)cn3N12" here?
mid

Which FC in respect of mutant strain 2 (E92Q/E138T/G140S/Q148H) category applies to "CCN1C(=O)c2c(O)c(=O)c(C(=O)NCc3ccc(F)cc3F)cn2N2[C@H](COC)CC[C@@H]12" here?
high
